The reported measurements were obtained from ChEMBL document CHEMBL5096238.

Assay: AUC(0 to t) in Sprague-Dawley rat at 2 mg/kg, iv measured for 24 hrs by LC-MS/MS analysis
Assay type: ADME, organism-based
Set-up: time 24 hrs, dose 2 mg/kg, route iv
Experimental parameters: in vivo
Experimental endpoint: AUC(0-t) at 24 h
Please state the value followed by its unit.

In one line, give reported AUC(0-t) at 24 h of the entry `O=C1NCCCCn2cc(cn2)-c2cnc3ccc(cc3c2)CCn2nc(ccc2=O)-c2ccc1c(C(F)(F)F)c2` .
484 ng·h/mL

###

Assay: Half life in Sprague-Dawley rat at 10 mg/kg, ip measured for 24 hrs by LC-MS/MS analysis
Assay type: ADME, organism-based
Experimental parameters: in vivo
Experimental endpoint: half-life (h)
Give the value, in units of h, as a plain number.

Look up and state reported half-life for `O=C1NCCCCn2cc(cn2)-c2cnc3ccc(cc3c2)CCn2nc(ccc2=O)-c2ccc1c(C(F)(F)F)c2`
4.63

###

Assay: AUC(0 to t) in Sprague-Dawley rat at 10 mg/kg, ip measured for 24 hrs by LC-MS/MS analysis
Format: ADME, organism-based
Set-up: dose 10 mg/kg, time 24 hrs, route ip
Experimental parameters: in vivo
Experimental endpoint: AUC(0-t) at 24 h

Report AUC(0-t) at 24 h for `O=C1NCCCCn2cc(cn2)-c2cnc3ccc(cc3c2)CCn2nc(ccc2=O)-c2ccc1c(C(F)(F)F)c2`
820 ng·h/mL

###

Assay: Oral bioavailability in Sprague-Dawley rat at 10 mg/kg measured for 24 hrs by LC-MS/MS analysis
Assay type: ADME, organism-based
Experimental parameters: in vivo
Experimental endpoint: bioavailability (%)
State the answer as a number, implicitly in %.

Please report the measured bioavailability for `O=C1NCCCCn2cc(cn2)-c2cnc3ccc(cc3c2)CCn2nc(ccc2=O)-c2ccc1c(C(F)(F)F)c2`
2.02

###

Assay: Clearance in Sprague-Dawley rat at 2 mg/kg, iv measured for 24 hrs by LC-MS/MS analysis
Type: ADME, organism-based
Experimental parameters: in vivo
Experimental endpoint: clearance (mL/min/kg)
Express the result in mL/min/kg but write the number alone.

Please give the documented clearance of `O=C1NCCCCn2cc(cn2)-c2cnc3ccc(cc3c2)CCn2nc(ccc2=O)-c2ccc1c(C(F)(F)F)c2`
70.1

###

System: AGS
Assay: cells
Experimental parameters: Homo sapiens, 120 h
Experimental endpoint: pIC50
Scale: negative log10 of molar concentration, which is what pIC50 denotes.

Given CN1CCC(COc2cnc(-c3cccc(Cn4nc(-c5cccc(C#N)c5)ccc4=O)c3)nc2)CC1 [TEPOTINIB] , respond with its pIC50.
5.84

###

Assay: Bioavailability in Sprague-Dawley rat at 10 mg/kg, ip measured for 24 hrs by LC-MS/MS analysis
Assay type: ADME, organism-based
Experimental parameters: in vivo
Experimental endpoint: bioavailability (%)
Hi! Could you send only the number? It should be in %, unit omitted.

Retrieve bioavailability measured for `O=C1NCCCCn2cc(cn2)-c2cnc3ccc(cc3c2)CCn2nc(ccc2=O)-c2ccc1c(C(F)(F)F)c2` and print it.
33.9

###

Assay: MRT (0 to t) in Sprague-Dawley rat at 10 mg/kg, ip measured for 24 hrs by LC-MS/MS analysis
Type: ADME, organism-based
Experimental parameters: in vivo
Experimental endpoint: MRT last at 24 h
The reply should consist of the numeric value with the unit placed after it.

Report measured MRT last at 24 h; entry is `O=C1NCCCCn2cc(cn2)-c2cnc3ccc(cc3c2)CCn2nc(ccc2=O)-c2ccc1c(C(F)(F)F)c2`
3.4 h
